# assayName: Antiplatelet activity in rabbit platelet-rich plasma assessed as inhibition of ADP-induced platelet aggregation at 0.1 mM preincubated for 5 mins followed by addition of ADP measured within 5 mins by Borns turbidimetric method
# Format: functional
# experimentalContext: Oryctolagus cuniculus
Give inhibition at 100 µM for every item shown.
Give bare numbers, in %.

[[record]]
compound = "CCCCC(OC(=O)CN1CCN(CCCCCOc2ccc(-c3cc(=S)ss3)cc2)CC1)c1ccccc1C(=O)Oc1ccc(/C=C/C(=O)OCCCCO[N+](=O)[O-])cc1OC (racemic)"
experimentalvalue = 19.7

[[record]]
compound = "CCCCC(OC(=O)CN1CCN(CCCCCCOc2ccc(-c3cc(=S)ss3)cc2)CC1)c1ccccc1C(=O)Oc1ccc(/C=C/C(=O)OCCCCCCO[N+](=O)[O-])cc1OC (racemic)"
experimentalvalue = 19.7

[[record]]
compound = "CCCCC(OC(=O)CN1CCN(CCCCCOc2ccc(-c3cc(=S)ss3)cc2)CC1)c1ccccc1C(=O)Oc1ccc(/C=C/C(=O)OC)cc1OC (racemic)"
experimentalvalue = 27.8

[[record]]
compound = "CCCCC(OC(=O)CCl)c1ccccc1C(=O)Oc1ccc(/C=C/C(=O)OCCO[N+](=O)[O-])cc1OC (racemic)"
experimentalvalue = 18

[[record]]
compound = "CCCCC(OC(=O)CN1CCN(CCCCCCOc2ccc(-c3cc(=S)ss3)cc2)CC1)c1ccccc1C(=O)Oc1ccc(/C=C/C(=O)OCCCCO[N+](=O)[O-])cc1OC (racemic)"
experimentalvalue = 19.7


Shifting focus to the compound that follows.
CCCCC(OC(=O)CN1CCN(CCCOc2ccc(-c3cc(=S)ss3)cc2)CC1)c1ccccc1C(=O)Oc1ccc(/C=C/C(=O)OCCCCO[N+](=O)[O-])cc1OC (racemic) has a reported inhibition at 100 µM of 19.7

----------
# assayName: Induction of nitric oxide release in potassium phosphate buffer at pH 7.4 at 0.1 mM after 90 mins by Griess assay
# Format: physicochemical
# experimentalContext: pH 7.4, 1.5 h, 100 µM
Give Activity for every item shown.
Numbers only, in µM.

[[record]]
compound = "CCCCC(OC(=O)CN1CCN(CCCCCOc2ccc(-c3cc(=S)ss3)cc2)CC1)c1ccccc1C(=O)Oc1ccc(/C=C/C(=O)OCCO[N+](=O)[O-])cc1OC (racemic)"
readoutname = "Activity"
experimentalvalue = 9.14


For each listed entry, give its Activity.
1. CCCCC(OC(=O)CN1CCN(CCCCOc2ccc(-c3cc(=S)ss3)cc2)CC1)c1ccccc1C(=O)Oc1ccc(/C=C/C(=O)OCCCCO[N+](=O)[O-])cc1OC (racemic)
2. CCCCC(OC(=O)CN1CCN(CCCOc2ccc(-c3cc(=S)ss3)cc2)CC1)c1ccccc1C(=O)Oc1ccc(/C=C/C(=O)OCCCCO[N+](=O)[O-])cc1OC (racemic)

RESULT:
1: 7.45; 2: 2.56

For each listed entry, give its Activity.
1. CCCCC(OC(=O)CN1CCN(CCCCCCOc2ccc(-c3cc(=S)ss3)cc2)CC1)c1ccccc1C(=O)Oc1ccc(/C=C/C(=O)OCCO[N+](=O)[O-])cc1OC (racemic)
2. CCCCC(OC(=O)CN1CCN(CCOc2ccc(-c3cc(=S)ss3)cc2)CC1)c1ccccc1C(=O)Oc1ccc(/C=C/C(=O)OCCCCCCO[N+](=O)[O-])cc1OC (racemic)

RESULT:
1. 5.97
2. 8.14
